# assayProcedure: protein stability index of a GFP-peptide fusion (GPS, HEK-293T) (PSI 1-6); higher = more stable;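 further: 24-mer peptide tiles fused after GFP, lentivirally expressed, FACS-sorted into six equal bins by GFP/DsRed ratio, decoded by Illumina sequencing, PSI is the read-weighted mean bin number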
# studyConditions: treatment: MLN4924 1 uM, 8 h; c terminus: a fixed tail appended
measuredMetric: protein stability index
// no unit, no text: just the number

Study these solved cases before continuing.
sequenceText	resultNumber
EENIMKSNIDKKFSAHYDAVEAEL [FAM50A]	5.08
AQRRRMDEISDHAKVLTLSDDLER [EIF5]	5.04

q: Which protein stability index reading was recorded for the sequence TKELDQWIEQLNECKQLSESQVKS [PPP2CA] ?
a: 4.69

q: // query protein stability index value for entry KSKGYGFVSFFNKWDAENAIQQMG [TIA1]
a: 1.59

q: Which measured protein stability index value corresponds to DYWNLQKDYYPINESLASLPLRVS [CLPTM1] ?
a: 2.52

q: Given the sequence RYQKYGYIGTHEYPHFSHRPSTLQ [OAS1] , what is its reported protein stability index?
a: 2.45

q: What protein stability index value was documented for this sequence, CLFSLINGDDMFVTFAAMQAQQGR [MCOLN1] ?
a: 2.74

q: What protein stability index value was documented for this sequence, DIIRKQVLGTKVDAERDGVKVPTT [CDC34] ?
a: 4.23

q: What measured protein stability index goes with AKMAGIGIREASSGGGGSSSNFHI [KRT15] ?
a: 3.14

q: Could you tell me which protein stability index is on file for YLVENNANISIANKYDNTCLMIAA [FEM1B] ?
a: 2.21

q: Returns the measured protein stability index for the input sequence. Input: GTYSQALNDAKRELRFLLVYLHGD [FAF2]
a: 2.16

q: // lookup protein stability index for FDQLKQFLTFDKQVLRFYAIWDDT [EFHC1]
a: 2.13

* * *

Recorded protein stability index values for a group of sequences are listed next.
# assayProcedure: protein stability index of a GFP-peptide fusion (GPS, HEK-293T) (PSI 1-6); higher = more stable
# studyConditions: treatment: MLN4924 1 uM, 8 h; c terminus: a fixed tail appended
Respond numerically, and do not add a unit to the figure.

Worked cases, protein stability index given:
sequenceText	protein stability index
PSPMPTHRSYLGPGSTSPLETSGN [SLC6A17]	4.47
VWNMTATRPKKMGSQLPKPRMLRE [FATE1]	3
RFLLKETLNQLQSLQNSLECAMET [NECAB1]	2.31
NRELWKEFSSVGTEMIITKAGRRM [TBX6]	3.21
LSCTLVPRSGEQAEGSPGGPGDSQ [CDKN1A]	5.05
QTLLGTAKMLLHEGQHPAQLRSDV [PYCR3]	3.16
IALDLTPVIEELTNAGFLQTESEL [FAN1]	2.57
AKRLWKVCVEHHTFFRLLLPEAPP [EPB41L3]	2.42
SSQKKDTSSSTVVSTQRSQDHFHV [TIA1]	4.64
MQPFNYVTLQCLAARALDKNKIPY [FEM1A]	2.97

q: Name the reported protein stability index value associated with the sequence RLALEKVPKVGQRFNRIGLPPKVG [PI4K2A]
a: 3.21

q: Item under review: SDVNDNAPRFNQQLYTAYILENRP [PCDHGC5] . Reported protein stability index?
a: 3.1

q: Give its protein stability index value. Item: DDVRLLCHLTPSIYTEFPDETLRS [INTS3]
a: 3.49

q: I am curious: what protein stability index value has been reported for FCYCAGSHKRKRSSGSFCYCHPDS [GMCL1] ?
a: 3.19
